test system: Hepacivirus hominis; assay: Inhibition of HCV NS3 protease at 10 ug/ml
parameter: inhibition (%)

compound="COc1ccc2[nH]cc(C(CC(=O)CCC(=O)N[C@@H](Cc3ccccc3)C(=O)O)c3ccc(C(F)(F)F)cc3)c2c1 (mixture of isomers)" parameter=inhibition measured=48.5
compound="COc1ccc2[nH]cc(C(CC(=O)CCC(=O)N[C@@H](Cc3ccc(O)cc3)C(=O)O)c3ccc(C(F)(F)F)cc3)c2c1 (mixture of isomers)" parameter=inhibition measured=35.2
compound="COc1ccc(C(CC(=O)CCC(=O)N[C@@H](Cc2c[nH]cn2)C(=O)O)c2c[nH]c3ccc(OC)cc23)cc1 (mixture of isomers)" parameter=inhibition measured=22.4
compound="O=C(CCC(=O)N[C@@H](Cc1ccc(O)cc1)C(=O)O)CC(c1ccc(C(F)(F)F)cc1)c1c[nH]c2ccc(Br)cc12 (some centres not stated)" parameter=inhibition measured=19.1
compound="COc1ccc2[nH]cc(C(CC(=O)CCC(=O)N[C@@H](Cc3c[nH]cn3)C(=O)O)c3ccc(C(F)(F)F)cc3)c2c1 (mixture of isomers)" parameter=inhibition measured=23.5

I = COc1ccc(C(CC(=O)CCC(=O)N[C@@H](Cc2ccc(O)cc2)C(=O)O)c2c[nH]c3ccc(OC)cc23)cc1 (mixture of isomers)
II = COc1ccc(C(CC(=O)CCC(=O)N[C@@H](Cc2ccccc2)C(=O)O)c2c[nH]c3ccc(OC)cc23)cc1 (mixture of isomers)
Between the entries labelled I and II , which has a larger inhibition value on record? Lab note: record the label of whichever item you select.
II

====

system: Hepacivirus hominis; experiment: Inhibition of HCV NS3 protease at 50 ug/ml
parameter: inhibition (%)

compound="COc1ccc(C(CC(=O)CCC(=O)N[C@@H](Cc2ccc(O)cc2)C(=O)O)c2c[nH]c3ccc(OC)cc23)cc1 (mixture of isomers)" assay_target="Hepacivirus hominis" measured=69.9
compound="COc1ccc(C(CC(=O)CCC(=O)N[C@@H](Cc2c[nH]c3ccccc23)C(=O)O)c2c[nH]c3ccc(OC)cc23)cc1 (mixture of isomers)" assay_target="Hepacivirus hominis" measured=54.4
compound="O=C(CCC(=O)N[C@@H](Cc1ccc(O)cc1)C(=O)O)CC(c1ccc(C(F)(F)F)cc1)c1c[nH]c2ccc(Br)cc12 (stereo partly specified)" assay_target="Hepacivirus hominis" measured=54
compound="COc1ccc(C(CC(=O)CCC(=O)N[C@@H](Cc2ccccc2)C(=O)O)c2c[nH]c3ccc(OC)cc23)cc1 (mixture of isomers)" assay_target="Hepacivirus hominis" measured=84.4
compound="COc1ccc(C(CC(=O)CCC(=O)N[C@@H](Cc2c[nH]cn2)C(=O)O)c2c[nH]c3ccc(OC)cc23)cc1 (mixture of isomers)" assay_target="Hepacivirus hominis" measured=59.2
compound="COc1ccc2[nH]cc(C(CC(=O)CCC(=O)N[C@@H](Cc3c[nH]cn3)C(=O)O)c3ccc(C(F)(F)F)cc3)c2c1 (mixture of isomers)" assay_target="Hepacivirus hominis" measured=62.5

====

tested on: Hepacivirus hominis; assay: Inhibition of HCV NS3 protease at 100 ug/ml
parameter: inhibition (%)

compound="COc1ccc(C(CC(=O)CCC(=O)N[C@@H](Cc2c[nH]c3ccccc23)C(=O)O)c2c[nH]c3ccc(Br)cc23)cc1 (mixture of isomers)" parameter=inhibition measured=72.6
compound="COc1ccc2[nH]cc(C(CC(=O)CCC(=O)N[C@@H](Cc3c[nH]c4ccccc34)C(=O)O)c3ccc(C(F)(F)F)cc3)c2c1 (mixture of isomers)" parameter=inhibition measured=76.9
compound="COc1ccc(C(CC(=O)CCC(=O)N[C@@H](Cc2c[nH]c3ccccc23)C(=O)O)c2c[nH]c3ccc(OC)cc23)cc1 (mixture of isomers)" parameter=inhibition measured=67.4
compound="COc1ccc2[nH]cc(C(CC(=O)CCC(=O)N[C@@H](Cc3ccc(O)cc3)C(=O)O)c3ccc(C(F)(F)F)cc3)c2c1 (mixture of isomers)" parameter=inhibition measured=84.3
compound="COc1ccc2[nH]cc(C(CC(=O)CCC(=O)N[C@@H](Cc3c[nH]cn3)C(=O)O)c3ccc(C(F)(F)F)cc3)c2c1 (mixture of isomers)" parameter=inhibition measured=77.6
compound="O=C(CCC(=O)N[C@@H](Cc1ccc(O)cc1)C(=O)O)CC(c1ccc(C(F)(F)F)cc1)c1c[nH]c2ccc(Br)cc12 (stereo partly specified)" parameter=inhibition measured=82.9
compound="COc1ccc(C(CC(=O)CCC(=O)N[C@@H](Cc2ccc(O)cc2)C(=O)O)c2c[nH]c3ccc(Br)cc23)cc1 (mixture of isomers)" parameter=inhibition measured=68.7
compound="COc1ccc(C(CC(=O)CCC(=O)N[C@@H](Cc2ccccc2)C(=O)O)c2c[nH]c3ccc(OC)cc23)cc1 (mixture of isomers)" parameter=inhibition measured=85.7
compound="COc1ccc(C(CC(=O)CCC(=O)N[C@@H](Cc2c[nH]cn2)C(=O)O)c2c[nH]c3ccc(OC)cc23)cc1 (mixture of isomers)" parameter=inhibition measured=75.7
compound="COc1ccc(C(CC(=O)CCC(=O)N[C@@H](Cc2ccc(O)cc2)C(=O)O)c2c[nH]c3ccc(OC)cc23)cc1 (mixture of isomers)" parameter=inhibition measured=78.8
compound="COc1ccc2[nH]cc(C(CC(=O)CCC(=O)N[C@@H](Cc3ccccc3)C(=O)O)c3ccc(C(F)(F)F)cc3)c2c1 (mixture of isomers)" parameter=inhibition measured=84.9

====

test system: Hepacivirus hominis; assay: Inhibition of HCV NS3 protease at 50 ug/ml
parameter: inhibition (%)

I = COc1ccc(C(CC(=O)CCC(=O)N[C@@H](Cc2ccc(O)cc2)C(=O)O)c2c[nH]c3ccc(Br)cc23)cc1 (mixture of isomers)
II = COc1ccc2[nH]cc(C(CC(=O)CCC(=O)N[C@@H](Cc3ccccc3)C(=O)O)c3ccc(C(F)(F)F)cc3)c2c1 (mixture of isomers)
Between the entries labelled I and II , which has a larger inhibition value on record? Lab note: record the label of whichever item you select.
II
(II: 67.2%, I: 41.5%)

====

assay: Inhibition of HCV NS3 protease; parameters: species or system Hepacivirus hominis
parameter: IC50 (µg/mL)

compound="COc1ccc2[nH]cc(C(CC(=O)CCC(=O)N[C@@H](Cc3c[nH]cn3)C(=O)O)c3ccc(C(F)(F)F)cc3)c2c1 (mixture of isomers)" parameter=IC50 units_symbol=µg/mL measured=30.5

I = COc1ccc(C(CC(=O)CCC(=O)N[C@@H](Cc2ccc(O)cc2)C(=O)O)c2c[nH]c3ccc(Br)cc23)cc1 (mixture of isomers)
II = O=C(CCC(=O)N[C@@H](Cc1ccc(O)cc1)C(=O)O)CC(c1ccc(C(F)(F)F)cc1)c1c[nH]c2ccc(Br)cc12 (stereo partly drawn)
Returns: the label, I or II , whose recorded IC50 is the lower number. Lab note: record the label of whichever item you select.
II

====

assay: Inhibition of HCV NS3 protease; design: species or system Hepacivirus hominis
parameter: IC50 (µg/mL)

P = COc1ccc2[nH]cc(C(CC(=O)CCC(=O)N[C@@H](Cc3ccc(O)cc3)C(=O)O)c3ccc(C(F)(F)F)cc3)c2c1 (mixture of isomers)
Q = COc1ccc2[nH]cc(C(CC(=O)CCC(=O)N[C@@H](Cc3ccccc3)C(=O)O)c3ccc(C(F)(F)F)cc3)c2c1 (mixture of isomers)
R = COc1ccc(C(CC(=O)CCC(=O)N[C@@H](Cc2ccc(O)cc2)C(=O)O)c2c[nH]c3ccc(OC)cc23)cc1 (mixture of isomers)
Reorder the items by IC50, least to greatest. Lab note: final answer is the ordered label list.
Q, R, P

A = COc1ccc([C@@H](CC(=O)CCC(=O)N[C@@H](Cc2ccccc2)C(=O)O)c2c[nH]c3ccc(OC)cc23)cc1
B = COc1ccc(C(CC(=O)CCC(=O)N[C@@H](Cc2ccccc2)C(=O)O)c2c[nH]c3ccc(OC)cc23)cc1 (mixture of isomers)
Returns: the label, A or B , whose recorded IC50 is the lower number. Lab note: record the label of whichever item you select.
B

a = COc1ccc2[nH]cc(C(CC(=O)CCC(=O)N[C@@H](Cc3c[nH]c4ccccc34)C(=O)O)c3ccc(C(F)(F)F)cc3)c2c1 (mixture of isomers)
b = COc1ccc(C(CC(=O)CCC(=O)N[C@@H](Cc2c[nH]cn2)C(=O)O)c2c[nH]c3ccc(OC)cc23)cc1 (mixture of isomers)
Returns: the label, a or b , whose recorded IC50 is the lower number. Lab note: record the label of whichever item you select.
b
(b: 31 µg/mL, a: 47.9 µg/mL)

====

tested on: Hepacivirus hominis; experiment: Inhibition of HCV NS3 protease at 50 ug/ml
parameter: inhibition (%)

compound="COc1ccc(C(CC(=O)CCC(=O)N[C@@H](Cc2c[nH]c3ccccc23)C(=O)O)c2c[nH]c3ccc(Br)cc23)cc1 (mixture of isomers)" measured=54.8
compound="COc1ccc2[nH]cc(C(CC(=O)CCC(=O)N[C@@H](Cc3ccc(O)cc3)C(=O)O)c3ccc(C(F)(F)F)cc3)c2c1 (mixture of isomers)" measured=57.1
compound="COc1ccc2[nH]cc(C(CC(=O)CCC(=O)N[C@@H](Cc3c[nH]c4ccccc34)C(=O)O)c3ccc(C(F)(F)F)cc3)c2c1 (mixture of isomers)" measured=51.2
